Taken from the supplement of paper PMC5662764.

Test system: HS578T
TEST_METHOD_NOTES: normalised growth rate inhibition (GR value) relative to DMSO control (GR (1 = untreated growth, 0 = cytostasis, <0 = cytotoxic)); higher = less growth inhibition
CONDITION_DESCRIPTION: 0.37 µM; 72 h
TEST_READOUT: normalised growth rate inhibition
// return a plain number; no unit text

Input: Tell me the measured normalised growth rate inhibition of `COC1=C2C[C@@H](C)C[C@H](OC)[C@H](O)[C@@H](C)/C=C(\C)[C@H](OC(N)=O)[C@@H](OC)/C=C\C=C(/C)C(=O)NC(=CC1=O)C2=O` , please.
Output: 0.143

Input: Tell me the measured normalised growth rate inhibition of `CCN(CC)CCCCNc1ncc2cc(-c3cc(OC)cc(OC)c3)c(NC(=O)NC(C)(C)C)nc2n1` , please.
Output: 0.835

Input: Tell me the measured normalised growth rate inhibition of `C[C@@H](Oc1cc(-c2cnn(C3CCNCC3)c2)cnc1N)c1c(Cl)ccc(F)c1Cl` , please.
Output: 0.903

Input: Tell me the measured normalised growth rate inhibition of `Cc1cn(-c2cc(NC(=O)c3ccc(C)c(Nc4nccc(-c5cccnc5)n4)c3)cc(C(F)(F)F)c2)cn1` , please.
Output: 1.09

Input: Tell me the measured normalised growth rate inhibition of `Nc1ccc(-c2ccc3ncc4ccc(=O)n(-c5cccc(C(F)(F)F)c5)c4c3c2)cn1` , please.
Output: -0.0345

Input: Tell me the measured normalised growth rate inhibition of `O=c1[nH]c2ccccc2n1C1CCN(Cc2ccc(-c3[nH]c4cc5ncnc5cc4nc3-c3ccccc3)cc2)CC1` , please.
Output: 0.933

Input: Tell me the measured normalised growth rate inhibition of `Cc1ccc(NC(=O)c2ccc(CN3CCN(C)CC3)cc2)cc1Nc1nccc(-c2cccnc2)n1` , please.
Output: 1.01

* * *

Tested on: HS578T
TEST_METHOD_NOTES: normalised growth rate inhibition (GR value) relative to DMSO control (GR (1 = untreated growth, 0 = cytostasis, <0 = cytotoxic)); higher = less growth inhibition
CONDITION_DESCRIPTION: 0.37 µM; 72 h
TEST_READOUT: normalised growth rate inhibition
// return a plain number; no unit text

Input: Tell me the measured normalised growth rate inhibition of `C[C@@H](N)c1ccc(C(=O)Nc2ccnc3[nH]ccc23)cc1` , please.
Output: 0.802

Input: Tell me the measured normalised growth rate inhibition of `Cc1ccc(F)c(NC(=O)Nc2ccc(-c3cccc4[nH]nc(N)c34)cc2)c1` , please.
Output: 0.971

Input: Tell me the measured normalised growth rate inhibition of `CS(=O)(=O)CCNCc1ccc(-c2ccc3ncnc(Nc4ccc(OCc5cccc(F)c5)c(Cl)c4)c3c2)o1` , please.
Output: 0.976

Input: Tell me the measured normalised growth rate inhibition of `COc1cc(C(=O)N2CCC(N3CCN(C)CC3)CC2)ccc1Nc1ncc2c(n1)N(C)c1ccccc1C(=O)N2C` , please.
Output: 0.815

Input: Tell me the measured normalised growth rate inhibition of `O=C(NOC[C@H](O)CO)c1ccc(F)c(F)c1Nc1ccc(I)cc1F` , please.
Output: 0.328

* * *

System: BT20
TEST_METHOD_NOTES: normalised growth rate inhibition (GR value) relative to DMSO control (GR (1 = untreated growth, 0 = cytostasis, <0 = cytotoxic)); higher = less growth inhibition
CONDITION_DESCRIPTION: 0.04 µM; 72 h
TEST_READOUT: normalised growth rate inhibition
// return a plain number; no unit text

Input: Kindly state the measured normalised growth rate inhibition obtained for CN1CCN(c2ccc3nc(-c4c(N)c5c(F)cccc5[nH]c4=O)[nH]c3c2)CC1 [dovitinib] with BT20.
Output: 0.83

Input: Kindly state the measured normalised growth rate inhibition obtained for O=C(NC1CCNCC1)c1n[nH]cc1NC(=O)c1c(Cl)cccc1Cl [AT-7519] with BT20.
Output: 0.891

Input: Kindly state the measured normalised growth rate inhibition obtained for `CNC(=O)Nc1ccc(-c2nc(N3CC4CCC(C3)O4)c3cnn(C4CCC5(CC4)OCCO5)c3n2)cc1` with BT20.
Output: 0.473

* * *

Test system: MDAMB231
TEST_METHOD_NOTES: normalised growth rate inhibition (GR value) relative to DMSO control (GR (1 = untreated growth, 0 = cytostasis, <0 = cytotoxic)); higher = less growth inhibition
CONDITION_DESCRIPTION: 0.12 µM; 72 h
TEST_READOUT: normalised growth rate inhibition
// return a plain number; no unit text

Input: Tell me the measured normalised growth rate inhibition of COc1cc2ncnc(Nc3ccc(F)c(Cl)c3)c2cc1OCCCN1CCOCC1 [gefitinib] , please.
Output: 1.03

Input: Tell me the measured normalised growth rate inhibition of Nc1ccc(-c2ccc3ncc4ccc(=O)n(-c5cccc(C(F)(F)F)c5)c4c3c2)cn1 [torin-2] , please.
Output: 0.135

Input: Tell me the measured normalised growth rate inhibition of CN(C)C/C=C/C(=O)Nc1cc2c(Nc3ccc(F)c(Cl)c3)ncnc2cc1O[C@H]1CCOC1 [afatinib] , please.
Output: 0.873

Input: Tell me the measured normalised growth rate inhibition of CNC(=O)c1ccc(Nc2cc(Nc3ccccc3S(=O)(=O)C(C)C)c3cc[nH]c3n2)nc1 [HG-5-113-01] , please.
Output: 0.888

Input: Tell me the measured normalised growth rate inhibition of CO[C@H]1C[C@@H]2CC[C@@H](C)[C@@](O)(O2)C(=O)C(=O)N2CCCC[C@H]2C(=O)O[C@H]([C@H](C)C[C@@H]2CC[C@@H](O)[C@H](OC)C2)CC(=O)[C@H](C)/C=C(\C)[C@@H](O)[C@@H](OC)C(=O)[C@H](C)C[C@H](C)/C=C/C=C/C=C/1C [sirolimus] , please.
Output: 0.781

Input: Tell me the measured normalised growth rate inhibition of Cn1cc(C2=C(c3cn(C4CCN(Cc5ccccn5)CC4)c4ccccc34)C(=O)NC2=O)c2ccccc21 [enzastaurin] , please.
Output: 1.01

Input: Tell me the measured normalised growth rate inhibition of Cc1ccc(NC(=O)c2ccc(CN3CCN(C)CC3)cc2)cc1Nc1nccc(-c2cccnc2)n1 [imatinib] , please.
Output: 0.999

* * *

Would you kindly list normalised growth rate inhibition for each of these compounds?
Test system: MCF10A
TEST_METHOD_NOTES: normalised growth rate inhibition (GR value) relative to DMSO control (GR (1 = untreated growth, 0 = cytostasis, <0 = cytotoxic)); higher = less growth inhibition
CONDITION_DESCRIPTION: 0.04 µM; 72 h
// return a plain number; no unit text

Input: Tell me the measured normalised growth rate inhibition of `Cc1nc(NC(=O)N2CCC[C@H]2C(N)=O)sc1-c1ccnc(C(C)(C)C(F)(F)F)c1` , please.
Output: 0.976

Input: Tell me the measured normalised growth rate inhibition of C[C@@H](Oc1cc(-c2cnn(C3CCNCC3)c2)cnc1N)c1c(Cl)ccc(F)c1Cl [crizotinib] , please.
Output: 0.988

Input: Tell me the measured normalised growth rate inhibition of O=C(NC1CCNCC1)c1n[nH]cc1NC(=O)c1c(Cl)cccc1Cl [AT-7519] , please.
Output: 0.969

Input: Tell me the measured normalised growth rate inhibition of CS(=O)(=O)CCNCc1ccc(-c2ccc3ncnc(Nc4ccc(OCc5cccc(F)c5)c(Cl)c4)c3c2)o1 [lapatinib] , please.
Output: 0.975

Input: Tell me the measured normalised growth rate inhibition of C[C@]1(O)C[C@@H](c2nc(-c3ccc4ccc(-c5ccccc5)nc4c3)c3c(N)nccn32)C1 [linsitinib] , please.
Output: 0.956

Input: Tell me the measured normalised growth rate inhibition of CCCS(=O)(=O)Nc1ccc(F)c(C(=O)c2c[nH]c3ncc(Cl)cc23)c1F [PLX-4720] , please.
Output: 0.998

Input: Tell me the measured normalised growth rate inhibition of Cc1cc([C@@H](C)Nc2ccccc2C(=O)O)c2nc(N3CCOCC3)cc(=O)n2c1 [AZD-6482] , please.
Output: 0.993

Input: Tell me the measured normalised growth rate inhibition of CS(=O)(=O)N1CCN(Cc2cc3nc(-c4cccc5[nH]ncc45)nc(N4CCOCC4)c3s2)CC1 [GDC-0941] , please.
Output: 0.869

* * *

Tested on: MDAMB231
TEST_METHOD_NOTES: normalised growth rate inhibition (GR value) relative to DMSO control (GR (1 = untreated growth, 0 = cytostasis, <0 = cytotoxic)); higher = less growth inhibition
CONDITION_DESCRIPTION: 0.12 µM; 72 h
Would you kindly list normalised growth rate inhibition for each of these compounds?
// return a plain number; no unit text

Input: Tell me the measured normalised growth rate inhibition of `CCc1cc(Nc2nccc(-c3c(-c4ccc(OC)c(C(=O)Nc5c(F)cccc5F)c4)nc4ccccn34)n2)c(OC)cc1N1CCC(N2CCN(S(C)(=O)=O)CC2)CC1` , please.
Output: 0.864

Input: Tell me the measured normalised growth rate inhibition of Cc1cc(Nc2cc(N3CCN(C)CC3)nc(Sc3ccc(NC(=O)C4CC4)cc3)n2)n[nH]1 [tozasertib] , please.
Output: 0.056

Input: Tell me the measured normalised growth rate inhibition of O=c1[nH]c2ccccc2n1C1CCN(Cc2ccc(-c3[nH]c4cc5ncnc5cc4nc3-c3ccccc3)cc2)CC1 [AKT-inhibitor-1-2] , please.
Output: 0.889

Input: Tell me the measured normalised growth rate inhibition of `O=C(NOCC1CC1)c1ccc(F)c(F)c1Nc1ccc(I)cc1Cl` , please.
Output: 0.854

Input: Tell me the measured normalised growth rate inhibition of `Cc1cnc(Nc2ccc(OCCN3CCCC3)cc2)nc1Nc1cccc(S(=O)(=O)NC(C)(C)C)c1` , please.
Output: 0.934

Input: Tell me the measured normalised growth rate inhibition of CS(=O)(=O)CCNCc1ccc(-c2ccc3ncnc(Nc4ccc(OCc5cccc(F)c5)c(Cl)c4)c3c2)o1 [lapatinib] , please.
Output: 0.939

Input: Tell me the measured normalised growth rate inhibition of O=C1c2c(O)ccc(O)c2C(=O)c2c(NCCNCCO)ccc(NCCNCCO)c21 [mitoxantrone] , please.
Output: -0.0634

Input: Tell me the measured normalised growth rate inhibition of COc1cc(N2CCC(N3CCN(C)CC3)CC2)ccc1Nc1ncc(Cl)c(Nc2ccccc2S(=O)(=O)C(C)C)n1 [NVP-TAE684] , please.
Output: 0.737
